biological target: S. pyogenes SKKanGAS, kanamycin survival, BacTiterGlo, 6 h; test: S. pyogenes SKKanGAS kanamycin growth inhibitors – SKKanGAS strain, luminescence, dose confirmation, streptokinase promoter inhibitor project, dose response (AID 1902);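 further: lower survival reflects blocked streptokinase promoter driving kanamycin resistance gene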
test_readout: pEC50
Scale: negative log10 of molar concentration, which is what pEC50 denotes.

Record excerpt, results attached:
>  <molecule>
Fc1ccc(-[n+]2nc(Nc3ccccc3)sc2-c2c3ccccc3cc3ccccc23)cc1

>  <experimental_system>
S. pyogenes SKKanGAS, kanamycin survival, BacTiterGlo, 6 h

>  <pEC50>
5.23

$$$$
>  <molecule>
Cc1ccc2c(Cl)cc(Cl)c(OCC(=O)NC(C)(C)C)c2n1

>  <experimental_system>
S. pyogenes SKKanGAS, kanamycin survival, BacTiterGlo, 6 h

>  <pEC50>
5.50

$$$$
>  <molecule>
O=C(N/N=C/c1cc([N+](=O)[O-])ccc1O)C(O)(c1ccccc1)c1ccccc1

>  <experimental_system>
S. pyogenes SKKanGAS, kanamycin survival, BacTiterGlo, 6 h

>  <pEC50>
5.21

$$$$
>  <molecule>
Cc1cc(N/N=C/c2c(O)ccc3ccccc23)nc(-c2ccccc2O)n1

>  <experimental_system>
S. pyogenes SKKanGAS, kanamycin survival, BacTiterGlo, 6 h

>  <pEC50>
6.59

$$$$
>  <molecule>
O=C(Nc1nnc(C2=COCCO2)o1)c1ccc(Cc2ccccc2)cc1

>  <experimental_system>
S. pyogenes SKKanGAS, kanamycin survival, BacTiterGlo, 6 h

>  <pEC50>
5.83

$$$$

Problem: Which pEC50 is listed for FC(F)(F)c1cc(CCN2C(=S)NC[C@@H]2CC2CCCCC2)cc(C(F)(F)F)c1 ?
Result: 5.43

Problem: Quick one: CC1C(=O)C(C)C(c2cc(Cl)ccc2O)NC1c1cc(Cl)ccc1O (configuration not stated)
Result: 5.64

====

Listing of entries alongside the reported pEC50.
biological target: S. pyogenes SKKanGAS, kanamycin survival, BacTiterGlo, 6 h; assay: S. pyogenes SKKanGAS kanamycin growth inhibitors – SKKanGAS strain, luminescence, dose confirmation, streptokinase promoter inhibitor project, dose response (AID 1902)
Remember, pEC50 is on a log scale: it is -log10 of the molar concentration.

>  <record_smiles>
Cc1oc(-c2cc(Cl)cc(Cl)c2)cc1C(=O)NCCc1ccccc1

>  <pEC50>
4.93

$$$$
>  <record_smiles>
Cc1ccc(/C=C/C(=O)c2ccc([N+](=O)[O-])o2)cc1

>  <pEC50>
5.28

$$$$
>  <record_smiles>
COc1cc(C)ccc1OCCCOc1ccccc1Br

>  <pEC50>
5.23

$$$$

Okay, next one:
Problem: Please give the measured pEC50 for this molecule: CCn1c(=O)c(C(=O)NNC(=O)c2ccc(Cl)cc2Cl)c(O)c2ccccc21
Result: 5.70

====

target: S. pyogenes SKKanGAS, kanamycin survival, BacTiterGlo, 6 h; assay: S. pyogenes SKKanGAS kanamycin growth inhibitors – SKKanGAS strain, luminescence, dose confirmation, streptokinase promoter inhibitor project, dose response (AID 1902)
Listed here: items and their measured EC50.

Before answering, review these 5 worked examples.
>  <record_smiles>
CC(=O)c1cccc(OC(=O)c2ccc3c(=O)n4c(nc3c2)CCC4)c1

>  <EC50>
13.7 µM

$$$$
>  <record_smiles>
O=C1C=CC(=O)N1CCNc1ncc(C(F)(F)F)cc1Cl

>  <EC50>
10.4 µM

$$$$
>  <record_smiles>
Cc1nc(=S)c2c([nH]1)-c1ccccc1CC21CCCCC1

>  <EC50>
0.945 µM

$$$$
>  <record_smiles>
O=c1c2ccccc2nc(COc2ccccc2)n1/N=C/c1cc([N+](=O)[O-])ccc1O

>  <EC50>
1.73 µM

$$$$
>  <record_smiles>
CCc1ccc(N=C2NC(=O)/C(=C/c3cc(OC)c(O)c(OC)c3)S2)cc1

>  <EC50>
4.44 µM

$$$$

Problem: Given N#C/C(=C(/O)c1cc2ccccc2o1)c1nc2ccccc2s1 , state its recorded EC50.
Result: 9.58 µM

Problem: Next: O=c1c2c([N+](=O)[O-])cc([N+](=O)[O-])cc2sn1Cc1ccccc1
Result: 6.62 µM

====

Each record here notes measured EC50.
molecular target: S. pyogenes SKKanGAS, kanamycin survival, BacTiterGlo, 6 h; assay: S. pyogenes SKKanGAS kanamycin growth inhibitors – SKKanGAS strain, luminescence, dose confirmation, streptokinase promoter inhibitor project, dose response (AID 1902);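 further: lower survival reflects blocked streptokinase promoter driving kanamycin resistance gene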

Solved entries:
>  <compound>
C=C(C)COc1ccc(-c2nc(N)ncc2Oc2ccc(OC)cc2)c(O)c1

>  <EC50>
6.59 µM

$$$$
>  <compound>
CC(C)n1nc(C(=O)Nc2nnc(SCc3c(Cl)cccc3Cl)s2)c2ccccc2c1=O

>  <EC50>
1.68 µM

$$$$
>  <compound>
OCCN(CCO)c1ccc(C(c2ccccc2Cl)c2ccc(N(CCO)CCO)cc2Cl)c(Cl)c1

>  <EC50>
5.06 µM

$$$$
>  <compound>
CC(C)=CCCC1(C)C=Cc2c(ccc3c2[nH]c2cc(O)c(C)cc23)O1 (centres undefined)

>  <EC50>
3.04 µM

$$$$
>  <compound>
Cc1cc2c(cc1C)CSC(c1c(O)ccc3ccccc13)SC2

>  <EC50>
2.08 µM

$$$$

Problem: Which value of EC50 has been reported for Cc1cc(/C=C2\SC(=O)NC2=O)c(C)n1-c1ccc(N2CCOCC2)cc1 in the records?
Result: 1.58 µM

Problem: Try this compound next: CCCCc1nc(NCc2ccccc2)c(C#N)c2c1CCCC2
Result: 8.22 µM

====

Reported EC50 values for the following compounds.
biological target: S. pyogenes SKKanGAS, kanamycin survival, BacTiterGlo, 6 h; assay: S. pyogenes SKKanGAS kanamycin growth inhibitors – SKKanGAS strain, luminescence, dose confirmation, streptokinase promoter inhibitor project, dose response (AID 1902);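 further: lower survival reflects blocked streptokinase promoter driving kanamycin resistance gene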

>  <record_smiles>
N=C1S/C(=C\c2cn[nH]c2-c2ccc(F)cc2)C(=O)N1c1ccccc1F

>  <EC50>
3.65 µM

$$$$

Problem: Value lookup for EC50; key = CC[C@@H](C)[C@H](NC(=O)OC(C)(C)C)c1nnc(S(=O)(=O)Cc2cc(C)ccc2C)o1
Result: 9.66 µM

Problem: Another: O=C(NNc1ccccc1Br)C(O)(c1cccc(C(F)(F)F)c1)c1cccc(C(F)(F)F)c1
Result: 2.59 µM

Problem: Now give it for O=C(Nc1ccc(N2CCCC2)c(S(=O)(=O)Nc2cccc(C(F)(F)F)c2)c1)c1cccs1 too.
Result: 3.95 µM

Problem: Can you handle Cc1cc(Cl)c2oc(C(=O)N3CCC(O)(c4ccccc4)CC3)c(C)c2c1 next?
Result: 7.31 µM

Problem: What about this compound? CCCCCCCCCCOC(=O)Cn1c(COc2ccc(C)cc2)[n+](C)c2ccccc21
Result: 5.67 µM

Problem: Repeat with CC(C)C[C@H](NC(=O)c1nc[nH]c1C(=O)NCc1ccccc1)C(=O)OCc1ccccc1
Result: 5.01 µM

Problem: Cc1cc(C(=O)N/N=C/c2cc(Br)cc([N+](=O)[O-])c2O)c2ccccc2n1 , same question.
Result: 0.893 µM

====

molecular target: S. pyogenes SKKanGAS, kanamycin survival, BacTiterGlo, 6 h; assay: S. pyogenes SKKanGAS kanamycin growth inhibitors – SKKanGAS strain, luminescence, dose confirmation, streptokinase promoter inhibitor project, dose response (AID 1902);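 active means EC50 no more than a set limit of log units above the highest dose; inactive means the rest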;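 further: lower survival reflects blocked streptokinase promoter driving kanamycin resistance gene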
Pick one and only one: true (1) for active, false (0) for inactive

Reference set, count: 6
>  <compound>
O=C(Nc1ccc(Br)c(C(F)(F)F)c1)c1ccc(C(F)(F)F)cc1

>  <class_label>
true (1)

$$$$
>  <compound>
Cc1noc(C)c1CSc1nc2ccccc2nc1NS(=O)(=O)c1ccc(Cl)cc1

>  <class_label>
true (1)

$$$$
>  <compound>
O=C1CN(/N=C/c2ccc([N+](=O)[O-])o2)C(=O)N1

>  <class_label>
true (1)

$$$$
>  <compound>
O=C(Nc1nc(-c2ccccn2)cs1)c1ccc(S(=O)(=O)N2CCCCC2)cc1

>  <class_label>
true (1)

$$$$
>  <compound>
CCOC(=O)c1sc2nc3c(SCC(=O)O)cc(C(=O)c4cc(F)ccc4O)cn3c(=O)c2c1C

>  <class_label>
true (1)

$$$$
>  <compound>
C[C@@]12CCC=C[C@H]1[C@H](c1ccc3ccccc3c1Br)N(Cc1ccccc1)C2=O

>  <class_label>
true (1)

$$$$

Problem: Tell me the assay call for Nc1nc(NCc2ccco2)nc(N2CCCCCC2)c1[N+](=O)[O-] please.
Result: true (1)

Problem: Follow-up item: CCOC(=O)c1cnc(-n2nc(C)cc2C)nc1NNc1cc(C)nc(-c2ccccc2)n1
Result: true (1)

Problem: Continue with CCOC(=O)C1=C(Cc2ccc(C)cc2)C(=O)c2ccccc2C1=O
Result: true (1)

Problem: Can you handle CN(Cc1ccc(OC(F)F)cc1)Cc1nc2c(Br)cc(Br)cc2c(=O)[nH]1 next?
Result: true (1)

Problem: Queued: O=C(COc1ccc(Cl)cc1Cl)NNC(=S)NC(=O)c1ccco1
Result: true (1)

Problem: And then Cc1nn(-c2ccc(Cl)cc2)c(Cl)c1/C=N/NC(=O)c1ccc(NS(=O)(=O)c2cccs2)cc1 , what is it?
Result: true (1)
